Data origin, for the record: patent US11371056B2

test system: Pseudomonas fluorescens HPPD polypeptide (wild-type and mutants); assay: Coupled HPPD activity assay: turnover and residual turnover in crude HPPD polypeptide extracts with and without Cmpd. 1; type: biochemical; conditions: absence of Cmpd. 1; changes in absorbance (OD) at 320 nm in the coupled assay, 30 min
The threshold is 0.2. Values of Turnover beneath it are tagged Criterion met; values meeting or exceeding it are tagged Criterion not met.

[ask] Lab log: compare recorded Turnover with 0.2; is it strictly lower for SEQ ID NO:52 (protein, mutant HPPD polypeptide) MADLYENPMGLMGFEFIEFASPTPGTLEPIFEIMGFTKVATHRSKNVHLYRQGEINLILNNEPNSIASYFAAEHGPSVCGMAFRVKDSQKAYNRALELGAQPIHIDTGPMELNLPAIKGIGGAPLYLIDRFGEGSSIYDIDFVYLEGVERNPVGAGLKVIDHLTHNVYRGRMVYWANFYEKLFNFREARYFDIKGEYTGLTSKAMSAPDGMIRIALNEESSKGAGQIEEFLMQFNGEGIQHVAFLTDDLVKTWDALKKIGMRFMTAPGDEYYEMLEGRLPDHGEPVDQLQARGILLDGSSVEGDKRLLLQIFSERLMGPVFFEFIQRKGDDGFGPHSFKVLFESIERDQVRRGVLTAD ?
[reply] Criterion met

[ask] # iterate: SEQ ID NO:2 (protein, mutant HPPD polypeptide) MADLYENPMGLMGFEFIEFASPTPGTLEPIFEIMGFTKVATHRSKNVHLYRQGEINLILNNEPNSIASYFAAEHGPSVCGMAFRVKDSQKAYNRALELGAQPIHIDTGPMELNLPAIKGIGGAPLYLIDRFGEGSSIYDIDFVYLEGVERNPVGAGLKVIDHLTHNVYRGRMVYWANFYEKLFNFREARYFDIKGEYTGLTSKAMSAPDGMIRIPLNEESSKGAGQIEEFLMQFNGEGIQHVAFLTDDLVKTWDALKKIGMRFMTAPPDTYYEMLEGRLPDHGEPVDQLQARGILLDGSSVEGDKRLLLQIFSETLMGPVFFEFIQRKGDDGFGPWNFAQLFESIERDQVRRGVLTAD
[reply] Criterion met

[ask] # iterate: SEQ ID NO:58 (protein, mutant HPPD polypeptide) MADLYENPMGLMGFEFIEFASPTPGTLEPIFEIMGFTKVATHRSKNVHLYRQGEINLILNNEPNSIASYFAAEHGPSVCGMAFRVKDSQKAYNRALELGAQPIHIDTGPMELNLPAIKGIGGAPLYLIDRFGEGSSIYDIDFVYLEGVERNPVGAGLKVIDHLTHNVYRGRMVYWANFYEKLFNFREARYFDIKGEYTGLTSKAMSAPDGMIKIPLNEESSKGAGQIEEFLMQFNGEGIQHVAFLTDDLVKTWDALKKIGMRFLTAPGDEYYEMLEGRLPDHGEPVDQLQARGILLDGSSVEGDKRLLLQIFSEQLMGPVFFEFIQRKGDDGFGPHSFKVLFEQMERDQVRRGVLTAD
[reply] Criterion not met

[ask] # iterate: SEQ ID NO:15 (protein, mutant HPPD polypeptide) MADLYENPMGLMGFEFIEFASPTPGTLEPIFEIMGFTKVATHRSKNVHLYRQGEINLILNNEPNSIASYFAAEHGPSVCGMAFRVKDSQKAYNRALELGAQPIHIDTGPMELNLPAIKGIGGAPLYLIDRFGEGSSIYDIDFVYLEGVERNPVGAGLKVIDHLTHNVYRGRMVYWANFYEKLFNFREARYFDIKGEYTGLTSKAMSAPDGMIRIPLNEESSKGAGQIEEFLMQFNGEGIQHVAFLTDDLVKTWDALKKIGMRFMTAPGDEYYEMLEGRLPDHGEPVDQLQARGILLDGSSVEGDKRLLLQIFSEQLMGPVFFEFIQRKGDDGFGPDSFKVLFESMERDQVRRGVLTAD
[reply] Criterion met

[ask] # iterate: SEQ ID NO:16 (protein, mutant HPPD polypeptide) MADLYENPMGLMGFEFIEFASPTPGTLEPIFEIMGFTKVATHRSKNVHLYRQGEINLILNNEPNSIASYFAAEHGPSVCGMAFRVKDSQKAYNRALELGAQPIHIDTGPMELNLPAIKGIGGAPLYLIDRFGEGSSIYDIDFVYLEGVERNPVGAGLKVIDHLTHNVYRGRMVYWANFYEKLFNFREARYFDIKGEYTGLTSKAMSAPDGMIRIPLNEESSKGAGQIEEFLMQFNGEGIQHVAFLTDDLVKTWDALKKIGMRFMTAPGDEYYEMLEGRLPDHGEPVDQLQARGILLDGSSVEGDKRLLLQIFSERLMGPVFFEFIQRKGDDGFGPDSFKVLFESMERDQVRRGVLTAD
[reply] Criterion met

[ask] # iterate: SEQ ID NO:49 (protein, mutant HPPD polypeptide) MADLYENPMGLMGFEFIEFASPTPGTLEPIFEIMGFTKVATHRSKNVHLYRQGEINLILNNEPNSIASYFAAEHGPSVCGMAFRVKDSQKAYNRALELGAQPIHIDTGPMELNLPAIKGIGGAPLYLIDRFGEGSSIYDIDFVYLEGVERNPVGAGLKVIDHLTHNVYRGRMVYWANFYEKLFNFREARYFDIKGEYTGLTSKAMSAPDGMIKIPLNEESSKGAGQIEEFLMQFNGEGIQHVAFLTDDLVKTWDALKKIGMRFMTAPGDEYYEMLEGRLPDHGEPVDQLQARGILLDGSSVEGDKRLLLQIFSEQLMGPVFFEFIQRKGDDGFGPHSFKVLFESIERDQVRRGVLTAD
[reply] Criterion not met
